# reported melting point; entries follow
PARAMETER MEASURED: melting point

| SMILES STRUCTURE | PARAMETER MEASURED | OBSERVED MEASUREMENT |
| --- | --- | --- |
| Cc1ccc2c(C)c(NC(=O)c3cc(C(F)(F)F)nn3-c3ncccc3Cl)c(C(N)=O)cc2c1 | melting point | 216 to 218 °C |
| NC(=O)c1cc2cc(Br)ccc2c(Cl)c1NC(=O)c1cc(Cn2nnc(C(F)(F)F)n2)nn1-c1ncccc1Cl | melting point | 190 to 226 °C |
| Cc1c(NC(=O)c2cc(C(F)(F)F)nn2-c2ncccc2Cl)c(C(N)=O)cc2c1OC(F)(F)O2 | melting point | 223 to 225 °C |
| NC(=O)c1cc2ccccc2c(Cl)c1NC(=O)c1cc(C(F)(F)F)nn1-c1ncccc1Cl | melting point | 155 to 157 °C |
| Cc1c(NC(=O)c2cc(OCC(F)(F)F)nn2-c2ncccc2Cl)c(C(N)=O)cc2ncsc12 | melting point | 135 to 140 °C |
| NC(=O)c1cc2cc(Br)ccc2c(Br)c1NC(=O)c1cc(Cl)nn1-c1ncccc1Cl | melting point | 170 to 172 °C |
